# experiment-summary: chemical genetic growth profiling, strain panel (AID 1159580);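 further: tested at 20 µM; growth read once vehicle control cultures reached saturation at 30 °C; 1 = growth at the plate median or of vehicle wells; lower values mean less growth of the strain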
# conditions: S. cerevisiae deletion strains, growth OD, locus YNL250W, strain rad50, stronger effect = lower value
Screen size: about 5,500 compounds; about 2,000 (36%) were called active. About 18% were inconclusive and are not listed. The list shows a part of the results.
Below: a set of entries, each annotated with reported normalized growth.

molecule	normalized growth
Cn1nnnc1SCC1=C(C(=O)O)N2C(=O)C(NC(=O)C(O)c3ccccc3)C2SC1 (configuration not stated)	1.01
CCC(CCC(C)[C@H]1CCC2C3CC=C4C[C@@H](O)CC[C@]4(C)C3CC[C@@]21C)C(C)C (some centres not stated)	0.961
COc1cccc(-c2cc(=O)c3cc(OC)ccc3o2)c1	1.05
CC(=O)O[C@H]1C[C@@]2(C)[C@H](c3ccoc3)OC(=O)[C@H]3O[C@]32[C@@]2(C)C1[C@]1(C)C(C[C@H]2OC(C)=O)C(C)(C)[C@H](OC(C)=O)C[C@@H]1OC(C)=O (some centres not stated)	0.97
CC(C)=CCc1c2c(c(O)c3c(=O)c(O)c(-c4ccccc4)oc13)C=CC(C)(C)O2	0.951
CC(=O)Nc1cccc(O)c1	0.995
C[C@@H]1CC[C@@]2(OC1)OC1C(O)C3C4CC[C@H]5C[C@H](O[C@@H]6O[C@H](CO)[C@H](O[C@@H]7O[C@H](CO)[C@@H](O)[C@H](O[C@@H]8OC[C@@H](O)[C@H](O)[C@H]8O)[C@H]7O[C@@H]7O[C@H](CO)[C@H](O)[C@H](O[C@@H]8O[C@H](CO)[C@@H](O)[C@H](O)[C@H]8O)[C@H]7O)[C@H](O)[C@H]6O)[C@H](O)C[C@]5(C)C4CC[C@]3(C)C1[C@@H]2C (some centres not stated)	0.0602
CC1=C2C(=CO[C@H](C)[C@H]2C)C(=O)C(C(=O)O)=C1O	0.979
Nc1ccc(C(=O)Oc2ccccc2)c(O)c1	0.95
COc1ccc(-c2cc(=O)c3c(OC(C)=O)cc(OC(C)=O)cc3o2)cc1	0.958
CC(=O)OC1CC2C(C)(C)CCCC2(C)C2CCC3(C)C(c4ccoc4)OC(=O)C4OC43C12C (configuration not stated)	1.01
COc1c(O)cc2c(-c3ccccc3)cc(=O)oc2c1OC	0.915
C=C1C(N)CC2CC1C2(C)C (configuration not stated)	1.03
CC(=O)O[C@H]1C[C@@H](O)C(C)(C)C2C[C@@H](OC(C)=O)[C@]3(C)C(CC[C@@]4(C)[C@H](c5ccoc5)OC(=O)C5OC543)[C@]21C (some centres not stated)	1.02
CC(=O)Nc1ccc(O)cc1	0.937
COC(=O)C1=C(C)NC(C)=C(C(=O)OC)C1c1ccccc1[N+](=O)[O-]	0.944
CCCN1C[C@H](CSC)C[C@@H]2c3cccc4[nH]cc(c34)C[C@H]21	1
O=C(O)/C=C(\CC(=O)O)C(=O)O	0.982
COc1ccc(-c2cc(=O)c3cc(OC)ccc3o2)cc1	0.957
COc1ccc(-c2coc3cc(OC)cc(O)c3c2=O)cc1	0.968
COC(=O)C1=C(C)NC(C)=C(C(=O)OCCN(C)Cc2ccccc2)C1c1cccc([N+](=O)[O-])c1 (configuration not stated)	0.981
CC(=O)Nc1ccc(OC(=O)c2ccccc2O)cc1	0.978
CCC1C2CC3C4N(C)c5ccccc5C45CC(C2C5OC(C)=O)N3C1OC(C)=O (configuration not stated)	1.01
COc1c(O)cccc1O	1.05
Cc1cc2cc3c(C)cc(=O)oc3c(C)c2o1	0.963
CC(=O)O[C@@H]1CC2C(C)(C)C(=O)CC[C@]2(C)C2CC[C@@]3(C)[C@H](c4ccoc4)OC(=O)C4OC43[C@@]21C (some centres not stated)	1.01
COc1ccc(-c2coc3cc(O)cc(O)c3c2=O)cc1	0.789
O=C(O)c1nc2cc(Cl)c(Cl)cc2[nH]c1=O	0.988
CC(=O)Oc1cc(-c2coc3cc(OC(C)=O)c(OC(C)=O)c(OC(C)=O)c3c2=O)cc(OC(C)=O)c1OC(C)=O	1.06
O=c1c2ccccc2[se]n1-c1ccccc1	0.101
CC(=O)[C@H]1CCC2C3CC=C4C[C@@H](O)CC[C@]4(C)C3CC[C@@]21C (some centres not stated)	1
Nc1ccc(C(=O)O)c(O)c1 (tested in a mixture with another compound)	0.981
CC1(C)O[C@@H]2CC3C4CCC5=CC(=O)C=C[C@]5(C)[C@@]4(F)[C@@H](O)C[C@]3(C)[C@]2(C(=O)CO)O1 (some centres not stated)	0.993
NCC(=O)CCC(=O)O	0.993
CNCCC=C1c2ccccc2CCc2ccccc21	1.01
C=C1C2CC[C@@]3(C)[C@H](c4ccoc4)OC(=O)C[C@]13O[C@H]1CC(=O)C(C)(C)[C@H](C(O)C(=O)OC)[C@@]21C (some centres not stated)	1
COc1cc([C@@H]2c3cc4c(cc3[C@H](O)[C@H]3COC(=O)[C@@H]23)OCO4)cc(OC)c1OC	0.95
